The values you see were collected from patent US20050249734A1.

Biological target: somatostatin receptors on GH4 pituitary cells
Experiment: displacement of 125I-somatostatin-14 from GH4 pituitary cells
Ends that are not written are not given here.
Property name: pKd
Interpret pKd as the negative base-10 log of the concentration measured in mol/L.

Name the recorded pKd of the item PCKNFFWKTFSSCK-NH2 (cysteine pairing not given here) [cortistatin-14 peptide] in your answer.
8.30
